Tested on: SW-620
run.description: NCI tumour cell line growth inhibition, 48 h
Active and inactive are the calls of the source. No stated cut-off is given here; in the data, active = GI50 up to about 1.1 µM and inactive = higher.
Labels: yes (active), no (inactive)

# compound, class.assignment
data = [
    ("O=c1n(/N=C/c2ccccc2)c(=O)n2n1C1C=CC2CC1", "no"),
    ("COC(=O)/C(C#N)=C(/NCc1ccccc1)Nc1ccccc1", "no"),
    ("CON(C)C(=O)CNC(=O)OCC1c2ccccc2-c2ccccc21", "no"),
    ("Cc1sc2nc(N(C)C)oc(=O)c2c1C", "no"),
    ("CC1(C)N=c2c(ncn2N)=C(C(N)=O)N1", "no"),
    ("O=C(c1ccc(O)cc1)C1c2c3c(cc(O)c2C(c2ccc(O)cc2)C1c1cc(O)cc(O)c1)OC(c1ccc(O)cc1)C3c1cc2c(cc1O)OC(c1ccc(O)cc1)C2c1cc(O)cc(O)c1 (stereo not drawn)", "no"),
    ("Cc1ccc(SSCCCS(=O)O)cc1", "no"),
    ("CC(=O)OCC1OC(n2cc(F)c(=O)[nH]c2=O)C(NC(=O)OCc2ccccc2)C(OC(C)=O)C1OC(C)=O (stereo not drawn)", "no"),
    ("COC(=O)c1c(C)ccc2c(O)c3c(cc12)C(=O)c1c2c(cc(O)c1C3=O)C1(C)OC(C)(O2)C(O)C(N(C)C)C1O (stereo not drawn)", "yes"),
    ("COc1cc(N/N=C/C#N)cc(OC)c1OC", "no"),
    ("Cc1cc(C(C)C)cc(=O)c(O)c1", "no"),
    ("Cc1sc(N)c(S(=O)(=O)c2ccccc2)c1C", "no"),
    ("N=C1OC(CN2CCN(c3ccccc3)CC2)CN1C(=S)Nc1ccccc1 (stereo not drawn)", "no"),
]

Source: ChEMBL document CHEMBL1201862
